Target: T1, HLA-A*03:01 (human)
T1 construct: Peptide-receptive MHC class I monomer in the UV-ligand exchange assay
Experiment: UV peptide exchange, anti-b2m ELISA; exchange yield grade

| BINDER | peptide exchange yield |
| --- | --- |
| ETYGTFVLR | 50 to 75% |
| KTIDLVIVR | ≥ 75% |
| IIVPSFYK | 50 to 75% |
| KLLLLSSVK | 50 to 75% |
| GSLQTLPPK | 50 to 75% |
| MVNWSLTNK | ≥ 75% |
| SVYMATTLK | ≥ 75% |
| IVFLLQQGEK | 50 to 75% |
| SVFSLVHLFDK | ≥ 75% |
